Target: UniProt Q9BXF3
Sequence (Q9BXF3 whole entry): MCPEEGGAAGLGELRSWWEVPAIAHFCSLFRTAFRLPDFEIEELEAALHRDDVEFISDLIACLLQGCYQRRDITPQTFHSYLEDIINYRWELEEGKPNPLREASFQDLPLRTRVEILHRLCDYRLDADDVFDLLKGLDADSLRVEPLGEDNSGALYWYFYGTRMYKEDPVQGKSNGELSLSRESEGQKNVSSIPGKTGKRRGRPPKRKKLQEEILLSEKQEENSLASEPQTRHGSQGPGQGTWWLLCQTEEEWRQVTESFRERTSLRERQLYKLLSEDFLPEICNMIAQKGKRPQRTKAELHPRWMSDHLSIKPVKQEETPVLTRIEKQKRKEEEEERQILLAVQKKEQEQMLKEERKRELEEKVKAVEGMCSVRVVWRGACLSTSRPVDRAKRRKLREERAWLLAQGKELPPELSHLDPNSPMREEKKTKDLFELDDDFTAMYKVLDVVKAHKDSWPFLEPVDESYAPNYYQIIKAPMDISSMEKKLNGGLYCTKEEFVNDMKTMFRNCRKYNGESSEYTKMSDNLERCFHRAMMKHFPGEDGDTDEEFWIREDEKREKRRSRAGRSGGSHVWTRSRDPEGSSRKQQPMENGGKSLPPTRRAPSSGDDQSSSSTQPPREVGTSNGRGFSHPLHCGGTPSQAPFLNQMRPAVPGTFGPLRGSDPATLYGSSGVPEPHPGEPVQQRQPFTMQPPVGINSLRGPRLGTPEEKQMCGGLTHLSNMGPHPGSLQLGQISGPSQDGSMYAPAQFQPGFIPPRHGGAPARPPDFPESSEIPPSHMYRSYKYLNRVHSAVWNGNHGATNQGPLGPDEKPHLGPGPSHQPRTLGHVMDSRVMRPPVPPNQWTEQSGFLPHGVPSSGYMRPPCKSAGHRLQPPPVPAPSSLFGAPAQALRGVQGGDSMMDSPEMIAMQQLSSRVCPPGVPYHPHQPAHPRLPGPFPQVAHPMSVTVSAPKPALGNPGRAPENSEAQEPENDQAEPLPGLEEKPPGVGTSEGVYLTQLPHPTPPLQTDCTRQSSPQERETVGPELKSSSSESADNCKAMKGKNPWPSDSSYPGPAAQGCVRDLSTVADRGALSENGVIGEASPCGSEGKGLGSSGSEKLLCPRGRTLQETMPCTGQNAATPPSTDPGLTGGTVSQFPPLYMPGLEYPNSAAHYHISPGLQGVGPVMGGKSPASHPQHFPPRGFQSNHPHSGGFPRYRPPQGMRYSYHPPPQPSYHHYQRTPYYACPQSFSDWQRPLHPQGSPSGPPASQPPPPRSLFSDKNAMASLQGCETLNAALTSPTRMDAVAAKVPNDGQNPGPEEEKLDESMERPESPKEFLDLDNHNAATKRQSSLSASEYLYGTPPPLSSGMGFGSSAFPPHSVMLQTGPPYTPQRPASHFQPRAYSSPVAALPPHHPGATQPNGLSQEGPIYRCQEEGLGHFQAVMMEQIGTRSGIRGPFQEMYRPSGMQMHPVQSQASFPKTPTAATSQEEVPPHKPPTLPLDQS
Test: Alphascreen assay. Binding to CECR2A (domain start/stop: P420-D543) by alphascreen assay
TEST READOUT: IC50 (nM)
Answers are plain numbers, in nM.

Q: Sample "CC(=O)c1cc(-c2cc(C(=O)NC3CC3)ccc2C)c2ncccn12" — what was its IC50?
A: 2430
